Test: Probe fluorescence ratio response to linolenic acid relative to ADIFAB2
Type: binding
Settings: response relative to ADIFAB2
Source text: In an alternate preferred embodiment, the protein is rI-FABP that has Ala substituted for Leu at position 72 (rI-FABP-L72A) with the resulting probe named ADIFAB2. […] ADIFAB2 also has an altered spectral response, making it especially useful for measurements of FFAu in blood samples (Apple et al, Clinical Proteomics, (2004) 1:41-44, U.S. patent application Ser. No. 10/670,958). […] The baseline value for this ratio, measured in the absence of analyte, is designated R0. […]
Reported DR/DR LNA by item:

Check out these entries, answers already filled in.
>  <molecule>
72S (protein, listed as Rattus norvegicus, PEPTIDE (1)...(131) wild-type rat intestinal fatty acid binding protein) AFDGTWKVDRNENYEKFMEKMGINVVKRKLGAHDNLKLTITQEGNKFTVKESSNFRNIDVVFELGVDFAYSSADGTELTGTWTMEGNKLVGKFKRVDNGKELIAVREISGNELIQTYTYEGVEAKRIFKKE

>  <DR/DR LNA>
0.71

$$$$
>  <molecule>
74T, 72A (protein, listed as Rattus norvegicus, PEPTIDE (1)...(131) wild-type rat intestinal fatty acid binding protein) AFDGTWKVDRNENYEKFMEKMGINVVKRKLGAHDNLKLTITQEGNKFTVKESSNFRNIDVVFELGVDFAYSAATGTELTGTWTMEGNKLVGKFKRVDNGKELIAVREISGNELIQTYTYEGVEAKRIFKKE

>  <DR/DR LNA>
0.78

$$$$

Next:
Problem: Entry 51D1, 72A (protein, listed as Rattus norvegicus, PEPTIDE (1)...(131) wild-type rat intestinal fatty acid binding protein) AFDGTWKVDRNENYEKFMEKMGINVVKRKLGAHDNLKLTITQEGNKFTVKDSSNFRNIDVVFELGVDFAYSAADGTELTGTWTMEGNKLVGKFKRVDNGKELIAVREISGNELIQTYTYEGVEAKRIFKKE : reported DR/DR LNA = ?
Result: 1.39
